Biological target: E3 ubiquitin-protein ligase XIAP (Homo sapiens) (UniProt P98170)
Sequence (P98170 whole entry, looked up): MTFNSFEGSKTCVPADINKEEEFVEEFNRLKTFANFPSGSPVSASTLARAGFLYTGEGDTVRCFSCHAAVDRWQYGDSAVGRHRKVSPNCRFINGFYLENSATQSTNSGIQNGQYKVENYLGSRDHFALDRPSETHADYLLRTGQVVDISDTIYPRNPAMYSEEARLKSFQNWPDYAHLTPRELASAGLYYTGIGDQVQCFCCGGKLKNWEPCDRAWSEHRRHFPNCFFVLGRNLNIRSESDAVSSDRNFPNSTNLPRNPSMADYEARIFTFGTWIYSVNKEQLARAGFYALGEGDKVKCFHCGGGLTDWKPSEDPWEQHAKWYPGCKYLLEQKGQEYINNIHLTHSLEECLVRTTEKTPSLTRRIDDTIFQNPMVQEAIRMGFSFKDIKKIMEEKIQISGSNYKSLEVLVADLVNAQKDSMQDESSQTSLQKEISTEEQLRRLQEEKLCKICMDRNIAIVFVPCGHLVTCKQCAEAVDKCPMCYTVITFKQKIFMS
Assay: XIAP binders, primary screen, biophysical, small-molecule microarray, fluorescence 635 nm (AID 1181);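 further: score merges 667 nm emission and signal to noise over triplicate slides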
Details: small-molecule microarray binding, higher = more signal
Assign label 1 whenever composite z-score does not fall below -0.01; assign label 0 whenever it does.

For orientation, consider the following solved cases.
>>> group_label("CCCNC(=O)[C@@]1(C)c2ccccc2C(=O)N(Cc2ccccc2)[C@H]1c1ccc(CO)cc1")
"label 0"
>>> group_label("O=C1N(CCS(=O)(=O)c2ccccc2)Cc2ccccc2[C@@H]2OC(c3ccc(OCCCO)cc3)=N[C@]12CCS(=O)(=O)c1ccccc1")
"label 1"
>>> group_label("[N-]=[N+]=NCc1ccccc1[C@@H]1OC(c2ccc(OCCCO)cc2)=N[C@]1(Cc1ccccc1N=[N+]=[N-])C(=O)N1CCCCC1")
"label 1"
>>> group_label("C=C[C@H](C)[C@H](OC(=O)Nc1ccc(OC)cc1)c1ccc(OCCO)cc1")
"label 1"
>>> group_label("CCOC(=O)C1=C[C@@H](C(C)(C)C)N(S(=O)(=O)c2ccc(C)cc2)[C@H]1c1ccccc1")
"label 0"

Enquiry: # check: composite z-score of O=C1C2C=CC(C(O)c3ccc4c(c3)OCO4)N(Nc3ccccc3)C2C(=O)N1c1ccccc1 (stereo not given) is greater than or equal to -0.01
Return: label 0

Enquiry: Decide: is the reported value of composite z-score for CS(=O)(=O)CCOC(=O)C1=CC(CCCO)=CC(C2CC2)N(Cc2cccc(OC(F)(F)F)c2)C=C1C(=O)OCCS(C)(=O)=O (stereo not given) equal to or greater than -0.01?
Return: label 1

Enquiry: Threshold query (composite z-score >= -0.01) on [N-]=[N+]=NCc1ccccc1C[C@]1(C(=O)N2CCOCC2)COC(c2ccc(OCCCO)cc2)=N1
Return: label 1

Enquiry: hey, is composite z-score for this one >= -0.01? C=C(CCCC)/C(=C/C[C@H](OC(C)=O)c1ccc(OCCO)cc1)c1cc(C(=O)OC)ccc1OC
Return: label 1

Enquiry: Identify whether the reported composite z-score of the following molecule is -0.01 or greater: COC(=O)C1N=C(c2ccc(OCCCO)cc2)N(c2ccccc2)O1 (stereo not given)
Return: label 0
